Test: Inhibition of platelet aggregation in human platelet rich plasma (hPRP)
pIC50: −log10 of the molar value.
Parameter Measured: pIC50

Molecule	Parameter Measured	Measured
N=C(N)c1ccc(C2=NOC(CC(=O)NCCC(=O)O)C2)cc1 (stereo unspecified)	pIC50	7.22

* * *

// values below are reported pIC50
Test: Inhibition of platelet aggregation in human platelet rich plasma (hPRP)
pIC50: −log10 of the molar value.
Parameter Measured: pIC50

Molecule	Measured
N=C(N)c1ccc(C2=NOC(CC(=O)N3CCC(=O)C(C(=O)O)C3)C2)cc1 (stereo unspecified)	5.19
N=C(N)c1ccc(C2=NOC(CC(=O)N3CCC(C(=O)O)CC3)C2)cc1 (stereo unspecified)	5.60
N=C(N)c1ccc(C2=NOC(CC(=O)N3CCCC3CC(=O)O)C2)cc1 (stereo unspecified)	5.96
N=C(N)c1ccc(C2=NOC(CC(=O)N3CCCCC3CC(=O)O)C2)cc1 (stereo unspecified)	6.55
N=C(N)c1ccc(C2=NOC(CC(=O)N3CCCC(C(=O)O)C3)C2)cc1 (stereo unspecified)	5.28
N=C(N)c1ccc(C2=NOC(CC(=O)N3CCCCCC3CC(=O)O)C2)cc1 (stereo unspecified)	5.43

Origin of values: BindingDB's records for doi:10.1016/s0960-894x(00)00023-8
